Recorded self-cleavage values for a group of variants are listed next.
B1: LINE1-full (parent)
chain: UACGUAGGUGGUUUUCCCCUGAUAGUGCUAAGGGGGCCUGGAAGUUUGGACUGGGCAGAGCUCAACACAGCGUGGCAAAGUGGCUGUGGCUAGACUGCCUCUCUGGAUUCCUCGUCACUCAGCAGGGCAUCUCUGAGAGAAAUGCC

Variants of: B1
Experiment: self-cleavage, relative activity (ratio to wild type); higher = more cleavage; in vitro, sequencing; the parent is a self-cleaving ribozyme
measurement.name: self-cleavage

>>> result("UACGUAGGUGGUUUUCCCCUGAUAGUGCUAAGGGGGCCUGGAAGUUUGGACUGGGCAGAGCUCAACACAGCGUGGCAAAGUGGCUGUGGCUAGACUGCCUCUCUGGACUCCUCGUCACUCAGCAGGGCAUCUCUGAGAGAAAUGAC [U108C C145A]")
1.47
>>> result("UACGUAGGUGGUUUUCCCCUGAAAGUGCUAAGGGGGCCUGGAAGUGUGGACUGGGCAGAGCUCAACACAGCGUGGCAAAGUGGCUGUGGCUAGACUGCCUCUCUGGAUUCCUCGUCACUCAGCAGGGCAUCUCUGAGAGAAAUGCC [U23A U46G]")
0.35
>>> result("UACGUAGGUGGUUUUCCCCUGAUAGUGCUAAGGGGGCCUGGAAGUUUGGACUGGGCGGAGCUCAACACAGCGUGGCAAAGUGGCUGUGGCUAGACUGCCUCUCUGGAUUCCUCGUCACUCAGCGGGGCAUCUCUGAGAGAAAUGCC [A57G A124G]")
0.41
>>> result("UACGUAGGUGGUUUUCCCCUGAUAGUGCUAAGGGGGCCUGGAAGUUUGGGCUGGGCAGAGCUCAACACAGCGUGGCAAAGUGGCUGUGGCUAGACUGCCUCCCUGGAUUCCUCGUCACUCAGCAGGGCAUCUCUGAGAGAAAUGCC [A50G U102C]")
1.51
>>> result("UACGUAGGUGGUUUUCCCCUGAUAGUGCUAAGGGGGCCUGGAAGUUUGGACUGGGCAGAGCUCAACACUGCGUGGCAAAGUGGCUGUGGCUAGUCUGCCUCUCUGGAUUCCUCGUCACUCAGCAGGGCAUCUCUGAGAGAAAUGCC [A69U A94U]")
0.05
>>> result("UACGUAGGUGGUUUCCCCCUGAUAGUGCUAAGGGGGCCUGGAAGUUUGGACUGGGCAGAGCUCAACACAGCGUGGCAAAGUGGCUGUGGCUAGACUGCCUCUCUGGAUUCCUCGUCACUCAGCAAGGCAUCUCUGAGAGAAAUGCC [U15C G125A]")
0.87
>>> result("UACGUAGGUGGUUUUCUCCUGAUAGUGCUAAGGGGGCCUGGAAGUUUGGACUGGGCAGAGCUCAACACAGCGUGGCAAAGAGGCUGUGGCUAGACUGCCUCUCUGGAUUCCUCGUCACUCAGCAGGGCAUCUCUGAGAGAAAUGCC [C17U U81A]")
1.53
>>> result("UACGUAGGUGGUUUUCCCCUGAUAGUGCUAAGGGGGCCUGGAAGUUUGGACUGGGCAGAGCUCAACACAGCGUGGCAAAGUGGCUGUGGCUAGGCUGCCUCUCUGGAUUCCUCGUCCCUCAGCAGGGCAUCUCUGAGAGAAAUGCC [A94G A117C]")
0.26
>>> result("UACGUAGGUGGUUUUCCCCUGAUAGUGCUAAGGGGGCCUGGAAGUUUGGACUGGGCAGAGCUCAACGCAGCGUGGCAAAGUGGCUGUGGCUAGACUGCCUCUCUGGAUUCCUCGUCACUCGGCAGGGCAUCUCUGAGAGAAAUGCC [A67G A121G]")
0.53
>>> result("UACGUAGGUGGUUUUCCCCUGAUGGUGCUAAGGGGGCCUGGAAGUUUGGACUGGGCAGAGCUCAACACAGCGUGGCAAAGUGGCUGUGGCUAGACUGCCUCGCUGGAUUCCUCGUCACUCAGCAGGGCAUCUCUGAGAGAAAUGCC [A24G U102G]")
0.54
>>> result("UACGUAGGUGGUUUUCCCCUGAUAGUGCUAAGGGGGCCUGGACGUUUGGACUGGGCAGAGCUCAACACAGCGUGGCAAAGUGGCUGUGGCUAGACUGCCUCUCUGGAUUCCUAGUCACUCAGCAGGGCAUCUCUGAGAGAAAUGCC [A43C C113A]")
1.1
>>> result("UACGUAGGUGGUUUUCCCCUGAUAGUGCUAAGGGGGCCUGGAAGUUUGGACUGGGCAGAGCUCAACACAGCAUGGCAAAGUGGCUGUGGCUAGACUGCCCCUCUGGAUUCCUCGUCACUCAGCAGGGCAUCUCUGAGAGAAAUGCC [G72A U100C]")
0.32
>>> result("UACGUAGGUGGUUUUCCCCUGAUAGUGCUAAGGGGGCCUGGAAGUUUGGACUGGGCAGAGCUCAACACAGCGUGGCAAAGUGGCUGUGGCUAGACUGCCUCUCUGGACUCCUCGUCACUCAGCAGGGCAUCUCUAAGAGAAAUGCC [U108C G135A]")
1.6
>>> result("UACGUAGGGGGUUUUCCCCUGAUAGUGCUAAGGGGGCCUGGAAGUUUGGACUGGGCAGAGCUCAACACAGCGUGGCAAAGUGGCUGUGGCUAGGCUGCCUCUCUGGAUUCCUCGUCACUCAGCAGGGCAUCUCUGAGAGAAAUGCC [U9G A94G]")
0.22
>>> result("UACGUAGGUGGUUUUCCCCUGAUAGUGCUAAGGGGGCCUGGAAGUCUGGACUGGGCAGAGCUCAACACAGCGUGGCAAAGUGGCUGUGGCUAGACUGCCUCUCUGGAUUCCUCGUCACUCAGCAGGGCAACUCUGAGAGAAAUGCC [U46C U130A]")
1.68
>>> result("UACGUAGGUGGUUUUCCCCUGGUAGUGCUAAGGGGGCCUGGAAGUUUGGACUGGGCAGAGCUCAACACAGCGUGGCAAAGGGGCUGUGGCUAGACUGCCUCUCUGGAUUCCUCGUCACUCAGCAGGGCAUCUCUGAGAGAAAUGCC [A22G U81G]")
1.03
>>> result("UACGUAGGUGGUUUUCCCCUGAUAGUGCUAAGGGAGCCUGGAAGUUUGGACUGGGCAGAGCUCAACACAGCGUGGCAAAGUGGCUGUGGCUAGACUGCCUCUCUGGAUUCCUCGUCACUCAGCAGGGCAUCUCUGAGAGAAACGCC [G35A U143C]")
1.04
>>> result("UACGUAGGUGGUUUUCCCCUGAUAGUACUAAGGGGGCCUGGAAGUUUGGACUGGGCAGAGCUCAACACAGCGUGGCAAAGUGGCUGUGGCUAGACUGCCUCUCUGGAUUCCUCGUCACUCAGCAGGGCAUCUCUGAGAGUAAUGCC [G27A A140U]")
1.28
>>> result("UACGUAGGUGGUUUUCCCCUGAUAGUGCUAAGGGGGCCUGGAAGUUUGGACUGGGCAGAGCUCAACACAGCGUGGCAAAGUGGCGGUGGCUAGACUGCCUCUCUGGAUUCCACGUCACUCAGCAGGGCAUCUCUGAGAGAAAUGCC [U85G U112A]")
0.26
>>> result("UACGUAGGUGGUUUUCCCCUGAUAGUGCGAAGGGGGCCUGGAAGUUUGGACUGGGCGGAGCUCAACACAGCGUGGCAAAGUGGCUGUGGCUAGACUGCCUCUCUGGAUUCCUCGUCACUCAGCAGGGCAUCUCUGAGAGAAAUGCC [U29G A57G]")
0.51
>>> result("UACGUAGGUGGUUUUUCCCUGAUAGUGCUAAGGGGGCCUGGAAGUUUGGACUGGGCAGAGCUCAACACAGCGUGGCAAAGUGGCUGUGGCUAGACUGCCUCUCUGGAUUCCUCGUCACUCAGCAGGGCAUCUCUGAGAGAAAAGCC [C16U U143A]")
0.86
>>> result("UACGUAGGUGGUUUUCCCCUGAUAGUGCUAAGGGGGCCUGGAAGUUUGGACUGGGCAGAGCUCAGCACAGCGUGGCAAAGUGGCUGUGGCUGGACUGCCUCUCUGGAUUCCUCGUCACUCAGCAGGGCAUCUCUGAGAGAAAUGCC [A65G A92G]")
0.09
>>> result("UACGUAGGUGGUUUUCCCCUGAUAGUGCUAGGGGGGCCUGGAAGUUUGGACUGGGCAGAGCUCAACACAGCGUGGCAAAGUGGCUGUGGCUAGACUGCCUCUCUGGAUUCCUCGUCACUCAGCAGGGCAUCUCUGAGGGAAAUGCC [A31G A138G]")
0.86
>>> result("UACGUAGGUGGUUUUCCCCUGAUAGUGCUAAGGGGGCCUGGAAGUUUGGACUGGGCAGAGCUCAACACAGCGUGGCAAAGUGGCAGUGGCUAGACGGCCUCUCUGGAUUCCUCGUCACUCAGCAGGGCAUCUCUGAGAGAAAUGCC [U85A U96G]")
0.15
>>> result("UACAUAGGUGGUUUUCCCCUGAUAGUGCUAAGGGGGCCUGGAAGUUUGGACUGGGCAGAGCUCAACACAGCGUGGCAAAGUGGCUGUGGCUAGACUGCCUCUCUGGAUUCCCCGUCACUCAGCAGGGCAUCUCUGAGAGAAAUGCC [G4A U112C]")
1.31

Hey, just so you know, these numbers are from the RNAGym collection of RNA variant scans (doi:10.7554/elife.90254).
